Just for reference, PubChem BioAssay (NCI) is where these values come from.

assay.overview: NCI Yeast Anticancer Drug Screen. Data for the cln2 rad14 strain (AID 165);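 note: 0% = growth equal to vehicle treated cultures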
assay.setup: S. cerevisiae cln2 rad14 strain, at 50.0 µM (retest, dose inferred, filed as 5.0), hits give high values
About 79,000 compounds went through this panel and 15% of them were active in at least one assay; those are over-represented in the sample as a whole. The source made the active and inactive calls. Cut-off read from the data, not from the text of the source: active = growth inhibition above about 70%; inactive = the rest.
growth inhibition values by entry

Some entries whose results are on file:
molecule	growth inhibition
NC(=S)N/N=C/c1cn(CCCl)c2ccccc12	59% (inactive)
C=CS(=O)(=O)c1ccc2ccccc2c1	97% (active)
O=[N+]([O-])c1ccc2nc(CCl)[nH]c2c1	56% (inactive)
Fc1ccc(NC(=S)SCc2ccc(Cl)cc2)c(F)c1	99% (active)

Here is the next item to consider.
Data request: Look at this molecule and give its reported growth inhibition. CCOC(=O)NC(=S)Nc1ccsc1
Data returned: -13% (inactive)
